test system: Escherichia coli TOP10; experiment: shrunken log2 fold change of peptide-encoding DNA abundance (4.5 h post-induction vs induction); higher = less antimicrobial activity (less host growth inhibition); details: time post-induction: 4.5 h; library: site-saturation at positions 5, 18, 19, 20
PROPERTY: shrunken log2 fold change
The reply should be a number, written without any unit.

(Q) If you can, please state the reported shrunken log2 fold change value of RRIRYRPPRLPRPRPRPFWEPRP .
(A) 0.13

(Q) Same thing, different sequence: RRIRMRPPRLPRPRPRPKNQPRP
(A) 0.618

(Q) Same thing, different sequence: RRIRERPPRLPRPRPRPVGGPRP
(A) 0.21

(Q) Same thing, different sequence: RRIRWRPPRLPRPRPRPKACPRP
(A) 0.105

(Q) Same thing, different sequence: RRIRERPPRLPRPRPRPHEFPRP
(A) -0.0591

(Q) Same thing, different sequence: RRIRYRPPRLPRPRPRPLATPRP
(A) -0.378

(Q) Same thing, different sequence: RRIRYRPPRLPRPRPRPWMCPRP
(A) -0.0907

(Q) Same thing, different sequence: RRIRSRPPRLPRPRPRPSVSPRP
(A) -0.0446

----------
tested on: Escherichia coli TOP10; test: shrunken log2 fold change of peptide-encoding DNA abundance (4.5 h post-induction vs induction); higher = less antimicrobial activity (less host growth inhibition); details: time post-induction: 4.5 h; library: site-saturation at positions 5, 18, 19, 20;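 further: peptides expressed intracellularly from a pBAD plasmid library in pooled LB shake-flask culture, induced with 0.3% L-arabinose, DNA abundance read by NGS, three biological replicates, DESeq2 with apeglm shrinkage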
Please go through the items and note down their shrunken log2 fold change.
The reply should be a number, written without any unit.

(Q) If you can, please state the reported shrunken log2 fold change value of RRIRDRPPRLPRPRPRPYKLPRP .
(A) -1.01

(Q) Same thing, different sequence: RRIRSRPPRLPRPRPRPYKVPRP
(A) -0.0179

(Q) Same thing, different sequence: RRIRRRPPRLPRPRPRPTYIPRP
(A) -0.12

(Q) Same thing, different sequence: RRIRWRPPRLPRPRPRPAMRPRP
(A) 1.1

(Q) Same thing, different sequence: RRIRIRPPRLPRPRPRPIRMPRP
(A) -0.346

(Q) Same thing, different sequence: RRIRERPPRLPRPRPRPRMQPRP
(A) -0.0907

(Q) Same thing, different sequence: RRIRSRPPRLPRPRPRPPAGPRP
(A) 0.704

(Q) Same thing, different sequence: RRIRPRPPRLPRPRPRPMLHPRP
(A) -0.0917

(Q) Same thing, different sequence: RRIRGRPPRLPRPRPRPSNPPRP
(A) 0.14

(Q) Same thing, different sequence: RRIRYRPPRLPRPRPRPCSMPRP
(A) -0.0147

(Q) Same thing, different sequence: RRIRVRPPRLPRPRPRPVIFPRP
(A) -0.0885

(Q) Same thing, different sequence: RRIRRRPPRLPRPRPRPIWTPRP
(A) 0.181

(Q) Same thing, different sequence: RRIRCRPPRLPRPRPRPIMDPRP
(A) -0.5

(Q) Same thing, different sequence: RRIRLRPPRLPRPRPRPYLRPRP
(A) -0.132

(Q) Same thing, different sequence: RRIRYRPPRLPRPRPRPFVVPRP
(A) -0.786

(Q) Same thing, different sequence: RRIRLRPPRLPRPRPRPTERPRP
(A) -0.189

(Q) Same thing, different sequence: RRIRFRPPRLPRPRPRPNDPPRP
(A) -0.226

(Q) Same thing, different sequence: RRIRVRPPRLPRPRPRPEMWPRP
(A) 0.0217

(Q) Same thing, different sequence: RRIRFRPPRLPRPRPRPLQPPRP
(A) 0.104

(Q) Same thing, different sequence: RRIRTRPPRLPRPRPRPDWFPRP
(A) -0.112

(Q) Same thing, different sequence: RRIRHRPPRLPRPRPRPEMIPRP
(A) 0.0986

(Q) Same thing, different sequence: RRIRKRPPRLPRPRPRPEPKPRP
(A) 0.191
